Molecular target: PIP4K2B (human)
Assay: KINOMEscan competition binding
Conditions: compound 10.0 µM
List of kinase still bound, per cent of control values.
Respond numerically; units are % and should not be typed.

Example entries begin here.
smiles_string=Cc1n[nH]c2ccc(-c3cncc(OC[C@@H](N)Cc4c[nH]c5ccccc45)c3)cc12 readout_number=5.4
smiles_string=COc1cc2ncnc(-n3nc(-c4ccccn4)nc3N)c2cc1OC readout_number=44
smiles_string=CS(=O)(=O)N1CCN(Cc2cc3nc(-c4cccc5[nH]ncc45)nc(N4CCOCC4)c3s2)CC1 readout_number=100
smiles_string=O=C(Nc1cccc(Nc2ncc(Br)c(NCCc3cnc[nH]3)n2)c1)N1CCCC1 readout_number=0.55

Here is another molecule to look at.
Exercise: Tell me measured kinase still bound, per cent of control for COc1cc(C(=O)N2CCC(N3CCN(C)CC3)CC2)ccc1Nc1ncc2c(n1)N(C)c1ccccc1C(=O)N2C please.
Solution: 100

* * *

Target: CDC42BPG (human) (UniProt Q6DT37)
Sequence (Q6DT37 whole entry, looked up): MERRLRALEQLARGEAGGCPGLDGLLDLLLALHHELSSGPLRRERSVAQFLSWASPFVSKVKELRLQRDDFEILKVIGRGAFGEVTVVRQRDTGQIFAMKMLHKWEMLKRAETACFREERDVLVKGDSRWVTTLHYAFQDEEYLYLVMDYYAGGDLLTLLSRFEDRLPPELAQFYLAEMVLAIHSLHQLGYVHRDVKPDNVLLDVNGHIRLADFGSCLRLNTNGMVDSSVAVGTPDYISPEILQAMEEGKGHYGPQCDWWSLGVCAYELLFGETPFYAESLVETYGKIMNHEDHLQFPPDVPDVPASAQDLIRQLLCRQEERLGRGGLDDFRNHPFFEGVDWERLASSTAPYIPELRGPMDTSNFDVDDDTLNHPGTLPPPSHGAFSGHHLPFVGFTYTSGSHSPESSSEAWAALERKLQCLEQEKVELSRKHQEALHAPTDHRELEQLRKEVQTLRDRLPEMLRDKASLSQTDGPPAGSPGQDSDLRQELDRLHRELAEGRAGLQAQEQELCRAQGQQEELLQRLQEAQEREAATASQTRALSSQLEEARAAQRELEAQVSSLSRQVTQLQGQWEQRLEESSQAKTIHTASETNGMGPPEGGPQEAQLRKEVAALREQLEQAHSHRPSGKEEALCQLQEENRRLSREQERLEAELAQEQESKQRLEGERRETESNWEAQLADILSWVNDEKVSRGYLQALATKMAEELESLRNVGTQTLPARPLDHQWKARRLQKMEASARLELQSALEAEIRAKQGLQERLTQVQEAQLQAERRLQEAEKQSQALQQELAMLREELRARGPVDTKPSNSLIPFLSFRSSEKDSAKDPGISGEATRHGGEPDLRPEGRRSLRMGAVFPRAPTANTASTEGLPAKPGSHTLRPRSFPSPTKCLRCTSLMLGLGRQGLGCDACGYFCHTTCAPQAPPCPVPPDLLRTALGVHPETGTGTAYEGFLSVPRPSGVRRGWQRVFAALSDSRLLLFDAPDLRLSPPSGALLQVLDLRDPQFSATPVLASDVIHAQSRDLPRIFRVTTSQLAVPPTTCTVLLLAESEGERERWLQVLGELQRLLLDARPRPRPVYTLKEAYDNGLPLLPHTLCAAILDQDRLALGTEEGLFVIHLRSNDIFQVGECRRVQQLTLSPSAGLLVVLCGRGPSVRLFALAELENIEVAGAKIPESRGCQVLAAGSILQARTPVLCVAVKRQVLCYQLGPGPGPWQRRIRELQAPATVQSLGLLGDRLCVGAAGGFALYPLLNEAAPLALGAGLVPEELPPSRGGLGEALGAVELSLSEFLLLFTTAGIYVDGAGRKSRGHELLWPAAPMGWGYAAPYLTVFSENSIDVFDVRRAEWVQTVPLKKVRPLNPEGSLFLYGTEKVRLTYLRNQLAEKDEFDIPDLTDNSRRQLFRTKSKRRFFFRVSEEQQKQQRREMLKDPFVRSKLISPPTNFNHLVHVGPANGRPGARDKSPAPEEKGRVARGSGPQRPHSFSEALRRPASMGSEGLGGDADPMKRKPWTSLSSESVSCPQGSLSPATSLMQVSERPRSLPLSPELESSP
Assay: KINOMEscan competition binding
Conditions: compound 10.0 µM
Response field label takes true (1) when kinase still bound, per cent of control is strictly below 90% and false (0) in all other cases.

Past entries and their recorded results:
smiles_string=COc1cc2ncn(-c3cc(OCc4ccccc4C(F)(F)F)c(C(N)=O)s3)c2cc1OC discrete_label="true (1)"
smiles_string=N#CCNC(=O)c1ccc(-c2ccnc(Nc3ccc(N4CCOCC4)cc3)n2)cc1 discrete_label="false (0)"
smiles_string=Cc1n[nH]c2ccc(-c3cncc(OC[C@@H](N)Cc4c[nH]c5ccccc45)c3)cc12 discrete_label="true (1)"
smiles_string=COc1cc2ncnc(-n3nc(-c4ccccn4)nc3N)c2cc1OC discrete_label="false (0)"
smiles_string=COc1cc(N2CCN(C)CC2)ccc1Nc1ncc2c(n1)N(C)c1ccccc1C(=O)N2C discrete_label="false (0)"
smiles_string=CN(C)C/C=C/C(=O)Nc1ccc(C(=O)Nc2cccc(Nc3nccc(-c4cccnc4)n3)c2)cc1 discrete_label="true (1)"
smiles_string=COc1cc(C(=O)N2CCC(N3CCN(C)CC3)CC2)ccc1Nc1ncc2c(n1)N(C)c1ccccc1C(=O)N2C discrete_label="false (0)"

Please turn your attention to the following entry.
Exercise: Does the reported kinase still bound, per cent of control of the following molecule sit strictly below 90%? CNC(=O)c1ccc(Nc2cc(Nc3ccccc3S(=O)(=O)C(C)C)c3cc[nH]c3n2)nc1
Solution: false (0)

* * *

Target: AURKA (human)
Test: KINOMEscan competition binding
Details: compound 10.0 µM
property name: kinase still bound, per cent of control (%)
Respond numerically; units are % and should not be typed.

Example entries begin here.
smiles_string=C=CC(=O)Nc1cc(-n2c(=O)ccc3cnc4ccc(-c5cn[nH]c5)cc4c32)ccc1C result_units=% readout_number=63
smiles_string=O=c1cc(N2CCOCC2)oc2c(-c3cccc4c3sc3ccccc34)cccc12 result_units=% readout_number=98
smiles_string=COc1cc2ncn(-c3cc(OCc4ccccc4C(F)(F)F)c(C(N)=O)s3)c2cc1OC result_units=% readout_number=100
smiles_string=COCC(=O)NC/C=C/c1ccc2ncnc(Nc3ccc(Oc4ccc(C)nc4)c(C)c3)c2c1 result_units=% readout_number=100

Exercise: Tell me measured kinase still bound, per cent of control for O=C1NC(=O)/C(=C/c2ccc3nccc(-c4ccncc4)c3c2)S1 please.
Solution: 69

Exercise: Tell me measured kinase still bound, per cent of control for NC(=O)Nc1cc(-c2cccc(F)c2)sc1C(=O)N[C@@H]1CCCNC1 please.
Solution: 22

Exercise: Tell me measured kinase still bound, per cent of control for CNC(=O)c1ccc(Nc2cc(Nc3ccccc3S(=O)(=O)C(C)C)c3cc[nH]c3n2)nc1 please.
Solution: 2.7

Exercise: Tell me measured kinase still bound, per cent of control for COc1ccc(N(C(=O)Oc2c(C)cccc2C)c2ccnc(Nc3ccc(N4CCN(C)CC4)cc3)n2)c(OC)c1 please.
Solution: 6.8

Exercise: Tell me measured kinase still bound, per cent of control for CCN(CC)CCCCNc1ncc2cc(-c3cc(OC)cc(OC)c3)c(NC(=O)NC(C)(C)C)nc2n1 please.
Solution: 100
